// provenance: patent US10870630B2

# target desc: human α7 nicotinic acetylcholine receptor (α7 nAChR) (Homo sapiens, UniProt P36544)
# Sequence (P36544 23-502): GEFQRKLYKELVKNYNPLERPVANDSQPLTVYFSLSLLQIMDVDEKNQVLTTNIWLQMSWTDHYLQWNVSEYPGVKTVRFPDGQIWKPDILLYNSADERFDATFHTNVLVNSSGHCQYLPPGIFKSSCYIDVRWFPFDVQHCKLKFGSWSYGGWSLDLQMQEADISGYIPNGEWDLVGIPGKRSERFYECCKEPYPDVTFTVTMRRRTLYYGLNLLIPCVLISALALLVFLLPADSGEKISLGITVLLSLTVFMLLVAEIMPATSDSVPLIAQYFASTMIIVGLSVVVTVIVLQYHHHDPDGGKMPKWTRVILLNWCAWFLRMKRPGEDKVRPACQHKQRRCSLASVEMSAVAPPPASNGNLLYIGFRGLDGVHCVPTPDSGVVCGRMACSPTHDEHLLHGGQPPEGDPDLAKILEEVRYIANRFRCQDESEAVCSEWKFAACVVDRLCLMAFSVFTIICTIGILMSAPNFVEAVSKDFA
# protocol text: Automated patch-clamp electrophysiology functional assay (Assay A)
# Format: cell-based
# test conditions: HEK cell line stably expressing human RIC-3 and human α7; IonFlux HT whole-cell population patch; 40 μM acetylcholine; read-out: α7 nAChR EC50
observed property: log10 of EC50 (log10 of the value in nM)
Use the decimal logarithm of EC50 (nM).

Cn1cc2ccc(C3CC3c3ccc(S(N)(=O)=O)cc3)cc2n1 (racemic) [Example E12]; 3.70
CC1(C)[C@H](c2ccc(S(N)(=O)=O)cc2)[C@H]1c1cn2ncccc2n1 [Example 8]; 3.58
CC1(C)[C@@H](c2ccc(S(N)(=O)=O)cc2)[C@@H]1c1ncc2ccccc2n1 [Example C1]; 3.15
CC1(C)[C@H](c2ccc(S(N)(=O)=O)cc2)[C@H]1c1nc2cc(Cl)ccc2o1 [Example B6]; 2.30
NS(=O)(=O)c1ccc([C@H]2C[C@@H]2c2nc3ccc(F)cc3o2)cc1 [Example B7]; 3.62

For each listed entry, give its log10 of EC50.
1. CC1(C)[C@H](c2ccc(S(N)(=O)=O)cc2)[C@H]1c1nc2ccccc2s1 [Example B3]
2. CC1(C)OC([C@@H]2[C@@H](c3ccc(S(N)(=O)=O)cc3)C2(F)F)=Nc2ccccc21 [Example D5]

(A)
1: 3.53; 2: 3.04

---

Assign pEC50 to each entry below.
# target desc: human α7 nicotinic acetylcholine receptor (α7 nAChR) (Homo sapiens)
# protocol text: Automated patch-clamp electrophysiology functional assay (Assay A)
# Assay type: cell-based
# test conditions: HEK cell line stably expressing human RIC-3 and human α7; IonFlux HT whole-cell population patch; 40 μM acetylcholine; read-out: α7 nAChR EC50
Answers are plain numbers, as −log10 of the molar value.

Field: example entries. Status: answers known.
CC1(C)[C@@H](c2ccc(S(N)(=O)=O)cc2)[C@@H]1c1nc2ccc(Cl)cc2o1; 5.92
CC1(C)[C@H](c2ccc(S(N)(=O)=O)cc2)[C@H]1c1ncc2ccccc2n1 [Example D1]; 5.14
Cc1nc2c(C3CC3c3ccc(S(N)(=O)=O)cc3)cccc2s1 (racemic) [Example E1]; 6.39
COc1ccc2oc([C@@H]3[C@@H](c4ccc(S(N)(=O)=O)cc4)C3(C)C)nc2c1; 6.18
NS(=O)(=O)c1ccc([C@@H]2C[C@H]2c2cnc3ccccc3n2)cc1 (relative stereo); 5.89

As a next step, examine the molecule that follows.
(Q) Any idea what pEC50 was measured for CC1(C)[C@@H](c2ccc(S(N)(=O)=O)cc2)[C@@H]1c1nc2ccccc2o1 ?
(A) 6.55

---

# target desc: human α7 nicotinic acetylcholine receptor (α7 nAChR) (Homo sapiens)
# protocol text: Automated patch-clamp electrophysiology functional assay (Assay A)
# Type: cell-based
# test conditions: HEK cell line stably expressing human RIC-3 and human α7; IonFlux HT whole-cell population patch; 40 μM acetylcholine; read-out: α7 nAChR Potency
Assign EC50 to each entry below.

Field: example entries. Status: answers known.
CC1(C)[C@H](c2ccc(S(N)(=O)=O)cc2)[C@H]1c1nc2c(F)cc(F)cc2s1; 100 to 500 nM
NS(=O)(=O)c1ccc(C2CC2c2ccc3cc(C(F)(F)F)nnc3c2)cc1 (racemic); 500 to 5000 nM
CC1(C)[C@H](c2ccc(S(N)(=O)=O)cc2)[C@H]1c1nc2ccccc2s1; 500 to 5000 nM
CC1(C)[C@@H](c2ccc(S(N)(=O)=O)cc2)[C@@H]1c1nc2ccccc2o1; 100 to 500 nM
CC1(C)[C@@H](c2ccc(S(N)(=O)=O)cc2)[C@@H]1c1nc2ccc(Cl)cc2o1; 500 to 5000 nM
NS(=O)(=O)c1ccc(C2CC2c2ccc3nccnc3c2)cc1 (racemic); 500 to 5000 nM

For each listed entry, give its EC50.
1. CC1(C)[C@H](c2ccc(S(N)(=O)=O)cc2)[C@H]1c1nc2ccc(F)cc2o1
2. CC1(C)[C@H](c2ccc(S(N)(=O)=O)cc2)[C@H]1c1nc2ccccc2o1

(A)
["100 to 500 nM", "500 to 5000 nM"]

For each listed entry, give its EC50.
1. CC1(C)[C@@H](c2ccc(S(N)(=O)=O)cc2)[C@@H]1c1ncc2ccccc2n1
2. CC1(C)[C@H](c2ccc(S(N)(=O)=O)cc2)[C@H]1c1nc2c(o1)CCC2
3. NS(=O)(=O)c1ccc(C2CC2c2ccc3ccncc3n2)cc1 (racemic)
4. CC1(C)[C@H](c2ccc(S(N)(=O)=O)cc2)[C@H]1c1cn2ncccc2n1

(A)
1. 500 to 5000 nM
2. 500 to 5000 nM
3. 500 to 5000 nM
4. 500 to 5000 nM

For each listed entry, give its EC50.
1. CC1(C)[C@@H](c2ccc(S(N)(=O)=O)cc2)[C@@H]1c1nc2ccc(F)cc2s1
2. NS(=O)(=O)c1ccc(C2CC2c2cc3n(n2)CCCC3)cc1 (racemic)
3. NS(=O)(=O)c1ccc([C@@H]2C[C@H]2c2nc3c(o2)CCCC3)cc1
4. CC1(C)[C@H](c2ccc(S(N)(=O)=O)cc2)[C@H]1c1nc2cccnc2o1

(A)
1. 100 to 500 nM
2. 5000 to 50000 nM
3. 500 to 5000 nM
4. 500 to 5000 nM

For each listed entry, give its EC50.
1. Cn1ncc2cc(C3CC3c3ccc(S(N)(=O)=O)cc3)ccc21 (racemic)
2. NS(=O)(=O)c1ccc(C2CC2c2cnc3cc(Cl)cnc3c2)cc1 (racemic) [Example E2]

(A)
1: 500 to 5000 nM; 2: 500 to 5000 nM

For each listed entry, give its EC50.
1. COc1cccc2oc([C@H]3[C@H](c4ccc(S(N)(=O)=O)cc4)C3(C)C)nc12
2. NS(=O)(=O)c1ccc(C2CC2c2cc3ccncc3s2)cc1 (racemic)
3. CC1(C)[C@@H](c2ccc(S(N)(=O)=O)cc2)[C@@H]1c1nc2ccc(F)cc2o1
4. NS(=O)(=O)c1ccc([C@@H]2C[C@H]2c2cnc3ccccc3n2)cc1 (relative stereo)
5. CN1CCOc2cc(C3CC3c3ccc(S(N)(=O)=O)cc3)cnc21 (racemic)
6. NS(=O)(=O)c1ccc(C2CC2c2cnc3occc3c2)cc1 (racemic)
7. NS(=O)(=O)c1ccc([C@H]2C[C@@H]2c2nc3ccccc3o2)cc1

(A)
1. 500 to 5000 nM
2. 500 to 5000 nM
3. ≤ 100 nM
4. 500 to 5000 nM
5. 500 to 5000 nM
6. 500 to 5000 nM
7. 500 to 5000 nM

For each listed entry, give its EC50.
1. NS(=O)(=O)c1ccc([C@H]2[C@H](c3nc4ccccc4o3)C2(F)F)cc1
2. CC1(C)[C@H](c2ccc(S(N)(=O)=O)cc2)[C@H]1c1nc2c(F)cc(F)cc2o1
3. CC1(C)[C@H](c2ccc(S(N)(=O)=O)cc2)[C@H]1c1ncc2ccccc2n1 [Example D1]
4. CC1(C)[C@H](c2ccc(S(N)(=O)=O)cc2)[C@H]1c1ncc2c(n1)CCCC2
5. CC1(C)[C@H](c2ccc(S(N)(=O)=O)cc2)[C@H]1c1nc2cc(Cl)ccc2o1
6. CC1(C)OC([C@@H]2[C@@H](c3ccc(S(N)(=O)=O)cc3)C2(F)F)=Nc2ccccc21
7. CC1(C)[C@H](c2ccc(S(N)(=O)=O)cc2)[C@H]1c1nc2ccncc2o1 [Example D2]
8. CC1(C)[C@@H](c2ccc(S(N)(=O)=O)cc2)[C@@H]1c1nc2ccccc2s1

(A)
1: ≤ 100 nM; 2: 100 to 500 nM; 3: 5000 to 50000 nM; 4: 500 to 5000 nM; 5: 100 to 500 nM; 6: 500 to 5000 nM; 7: 500 to 5000 nM; 8: 100 to 500 nM

For each listed entry, give its EC50.
1. Cc1nc2c(C3CC3c3ccc(S(N)(=O)=O)cc3)cccc2s1 (racemic) [Example E1]
2. NS(=O)(=O)c1ccc([C@H]2[C@H](c3nc4ccccc4[nH]3)C2(F)F)cc1

(A)
100 to 500 nM
500 to 5000 nM

---

# target desc: human α7 nicotinic acetylcholine receptor (α7 nAChR) (Homo sapiens, UniProt P36544)
# protocol text: Automated patch-clamp electrophysiology functional assay (Assay A)
# Assay type: cell-based
# test conditions: HEK cell line stably expressing human RIC-3 and human α7; IonFlux HT whole-cell population patch; 40 μM acetylcholine; read-out: α7 nAChR Potency
pEC50: −log10 of the molar value.
Assign pEC50 to each entry below.

Field: example entries. Status: answers known.
CC1(C)[C@@H](c2ccc(S(N)(=O)=O)cc2)[C@@H]1c1nc2c(F)cc(F)cc2s1; 5.30 to 6.30
CC1(C)[C@H](c2ccc(S(N)(=O)=O)cc2)[C@H]1c1nc2ccc(F)cc2s1; 6.30 to 7.00
CC1(C)[C@@H](c2ccc(S(N)(=O)=O)cc2)[C@@H]1c1nc2c(o1)CCCC2; 6.30 to 7.00

For each listed entry, give its pEC50.
1. NS(=O)(=O)c1ccc([C@@H]2[C@@H](c3nc4ccccc4s3)C2(F)F)cc1
2. CC1(C)[C@H](c2ccc(S(N)(=O)=O)cc2)[C@H]1c1nc2ccc(Cl)cc2o1
3. NS(=O)(=O)c1ccc([C@H]2[C@H](c3nc4ccccc4s3)C2(F)F)cc1
4. Cn1c([C@@H]2[C@@H](c3ccc(S(N)(=O)=O)cc3)C2(C)C)nc2cc(F)cc(F)c21
5. CC1(C)[C@@H](c2ccc(S(N)(=O)=O)cc2)[C@@H]1c1nc2cc(Cl)ccc2o1
6. NS(=O)(=O)c1ccc([C@H]2[C@H](c3nc4c(o3)CCCC4)C2(F)F)cc1
7. NS(=O)(=O)c1ccc([C@H]2C[C@@H]2c2nc3ccc(F)cc3o2)cc1
8. NS(=O)(=O)c1ccc([C@@H]2[C@@H](c3nc4ccccc4o3)C2(F)F)cc1

(A)
["6.30 to 7.00", "6.30 to 7.00", "≥ 7.00", "4.30 to 5.30", "6.30 to 7.00", "5.30 to 6.30", "5.30 to 6.30", "6.30 to 7.00"]

For each listed entry, give its pEC50.
1. NS(=O)(=O)c1ccc(C2CC2c2cnn3ccccc23)cc1 (racemic)
2. NS(=O)(=O)c1ccc(C2CC2c2ccc3cc(Cl)ncc3c2)cc1 (racemic)
3. COc1ccc2oc([C@@H]3[C@@H](c4ccc(S(N)(=O)=O)cc4)C3(C)C)nc2c1
4. Cn1cc2ccc(C3CC3c3ccc(S(N)(=O)=O)cc3)cc2n1 (racemic)
5. CC1(C)[C@H](c2ccc(S(N)(=O)=O)cc2)[C@H]1c1nc2c(o1)CCCC2
6. CC1(C)[C@@H](c2ccc(S(N)(=O)=O)cc2)[C@@H]1c1ncc2c(F)cccc2n1

(A)
1: 5.30 to 6.30; 2: 5.30 to 6.30; 3: 5.30 to 6.30; 4: 5.30 to 6.30; 5: 5.30 to 6.30; 6: 5.30 to 6.30
